# Experimental Target: G-protein coupled receptor 151 (Homo sapiens) (UniProt Q8TDV0)
# Sequence (Q8TDV0 whole entry, looked up): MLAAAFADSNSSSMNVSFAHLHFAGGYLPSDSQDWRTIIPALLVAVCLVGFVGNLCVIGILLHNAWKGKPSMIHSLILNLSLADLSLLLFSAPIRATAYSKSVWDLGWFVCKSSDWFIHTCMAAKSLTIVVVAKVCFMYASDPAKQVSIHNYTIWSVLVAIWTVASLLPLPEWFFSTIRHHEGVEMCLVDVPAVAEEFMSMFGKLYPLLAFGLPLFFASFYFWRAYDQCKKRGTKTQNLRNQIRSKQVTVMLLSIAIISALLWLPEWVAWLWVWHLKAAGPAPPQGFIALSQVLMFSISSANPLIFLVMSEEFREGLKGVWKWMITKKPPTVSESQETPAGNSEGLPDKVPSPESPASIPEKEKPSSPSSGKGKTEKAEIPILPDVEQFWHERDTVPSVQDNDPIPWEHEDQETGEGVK
# Measurement Protocol: activators of human GPR151, primary screen, cell-based, PathHunter beta-arrestin, luminescence (AID 1508602);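 also: 0% = median of compound wells and 100% = cells with positive control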
# Measurement Setup: PathHunter beta-arrestin GPR151 cells, at 11.2 µM, active compounds read high
Hit rate of the full screen: of about 650,000 compounds, about 6,800 (1%) were called active. For the sample, actives were picked, then their nearest neighbours and some compounds at random.
Parameter: activation (%)
Could you give me the number in %? Just the number is fine.

Sample `CCc1ccc(N2N=C(C)/C(=C/c3ccc(-c4ccc(S(N)(=O)=O)cc4)o3)C2=O)cc1` — what was its activation?
-0.641

Please answer likewise for CC12CCC(C(=O)Nc3cc(Cl)ccc3Cl)(CC1=O)C2(C)C (stereo not drawn)
-0.262

###

# Experimental Target: G-protein coupled receptor 151 (Homo sapiens) (UniProt Q8TDV0)
# Measurement Protocol: activators of human GPR151, primary screen, cell-based, PathHunter beta-arrestin, luminescence (AID 1508602);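 also: 0% = median of compound wells and 100% = cells with positive control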
# Measurement Setup: PathHunter beta-arrestin GPR151 cells, at 11.2 µM, active compounds read high
Hit rate of the full screen: of about 650,000 compounds, about 6,800 (1%) were called active. Many of the other results were omitted from the sample, so actives are more common in it than they were.
Parameter: activation (%)
Could you give me the number in %? Just the number is fine.

INSERT INTO assay_data (compound, parameter, result) VALUES
  ('Cn1c(=O)cc(OCC(=O)NCCN2CCOCC2)c2ccccc21', 'activation', -0.103),
  ('Cc1cc(=O)[nH]c(SCC(=O)Nc2cccc3ccccc23)n1', 'activation', 15.8),
  ('Cc1cccc(NC(=O)CSc2nc3[nH]ncc3c(=O)[nH]2)c1', 'activation', 5.01),
  ('Cc1nnc(SCC(=O)Nc2cccc(Cl)c2)[nH]c1=O', 'activation', 0.326);

Sample `Cc1nc(SCC(=O)Nc2cccc3ccccc23)n[nH]1` — what was its activation?
-0.295

Please answer likewise for `O=C(CSc1ccc(F)cc1)Nc1ccccc1-c1nc2ccccc2s1`
-0.819

Please answer likewise for `Cn1ccnc1SCc1cc(=O)c(OC(=O)c2c(F)cccc2F)co1`
3.4

###

# Experimental Target: G-protein coupled receptor 151 (Homo sapiens)
# Measurement Protocol: activators of human GPR151, primary screen, cell-based, PathHunter beta-arrestin, luminescence (AID 1508602);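 also: 0% = median of compound wells and 100% = cells with positive control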
# Measurement Setup: PathHunter beta-arrestin GPR151 cells, at 11.2 µM
In all, about 650,000 compounds went through this assay and about 6,800 (1%) were called active. Rule as the data show it: active = activation above about 4.9%; inactive = the rest. The sample as a whole holds a higher share of actives than the screen did.
Select the matching outcome among Y = active, N = inactive

The examples below pair each entry with its known result.
INSERT INTO measurements (molecule, class) VALUES
  ('COc1ccc(C(=O)N2CCCN(c3nc4cc(C)c(C)cc4cc3C#N)CC2)cc1OC', 'N'),
  ('COc1ccccc1Cc1nc(-c2ccc(OC)c(OC)c2)no1', 'N'),
  ('COc1cccc(N2C(=O)C3CCCN3C2c2ccc(F)cc2)c1 (configuration not stated)', 'N'),
  ('COc1cccc(N2C(=O)NC(=O)/C(=C/c3ccc(OC)c(O)c3)C2=O)c1', 'N'),
  ('O=C(NCCCN=C1NS(=O)(=O)c2ccccc21)c1ccc(Cl)c(Cl)c1', 'N');

Dear colleague, could you share the recorded outcome for `CCc1ccc(CN2CCc3nnc(-c4ccccc4)n3CC2)o1` when you have a moment?
N

Please answer likewise for `COc1cc2nc(-c3cccc(C(C)=O)c3)nc(Nc3ccc(N4CCOCC4)cc3)c2cc1OC`
Y
